runDescription: Rodent Pharmacokinetic Study
assayContext: Wistar, in vivo, po; Wister rat male, P.O, 15 mg/kg
valueType: Cmax (ng/mL)

> print(dat)
                                   molecule  assayvalue
1  Cl.c1cncc(OCC2CC3CC3N2)c1 (stereo not shown)        7610

====

runDescription: Rodent Pharmacokinetic Study
assayContext: Wistar, in vivo, iv; Wister rat male, I.V, 5 mg/kg
valueType: AUC(0-t) (ng·h/mL)

> print(dat)
                                   molecule  valuetype  valueunits  assayvalue
1  Cl.c1cncc(OCC2CC3CC3N2)c1 (stereo not shown)   AUC(0-t)     ng·h/mL        4050
2  Cl.Cl.Clc1ncccc1OCC1CC2CC2N1 (stereo not shown)   AUC(0-t)     ng·h/mL        4160
3  Cl.Cl.Clc1ccc(OCC2CC3CC3N2)cn1 (stereo not shown)   AUC(0-t)     ng·h/mL        5380
4  Cl.Cl.Clc1cncc(OCC2CC3CC3N2)c1 (stereo not shown)   AUC(0-t)     ng·h/mL        2390

====

runDescription: Rodent Pharmacokinetic Study
assayContext: Wistar, in vivo, po; Wister rat male, P.O, 5 mg/kg
valueType: Tmax (min)

> print(dat)
                                   molecule  valuetype  assayvalue
1  Cl.Cl.Clc1ncccc1OCC1CC2CC2N1 (stereo not drawn)       Tmax          15
2  Cl.Cl.Clc1ccc(OCC2CC3CC3N2)cn1 (stereo not drawn)       Tmax          15
3  Cl.Cl.Clc1cncc(OCC2CC3CC3N2)c1 (stereo not drawn)       Tmax          15

====

runDescription: Rodent Pharmacokinetic Study
assayContext: Wistar, in vivo, po; Wister rat male, P.O, 15 mg/kg
valueType: half-life (h)

> print(dat)
                                   compound  valuetype  assayvalue
1  Cl.c1cncc(OCC2CC3CC3N2)c1 (stereo not shown)  half-life        4.19

====

tgt: recombinant human α4β2 nicotinic acetylcholine receptor (Homo sapiens, UniProt P17787+P43681)
Construct: expressed in transfected cells
Sequence (P43681 29-627): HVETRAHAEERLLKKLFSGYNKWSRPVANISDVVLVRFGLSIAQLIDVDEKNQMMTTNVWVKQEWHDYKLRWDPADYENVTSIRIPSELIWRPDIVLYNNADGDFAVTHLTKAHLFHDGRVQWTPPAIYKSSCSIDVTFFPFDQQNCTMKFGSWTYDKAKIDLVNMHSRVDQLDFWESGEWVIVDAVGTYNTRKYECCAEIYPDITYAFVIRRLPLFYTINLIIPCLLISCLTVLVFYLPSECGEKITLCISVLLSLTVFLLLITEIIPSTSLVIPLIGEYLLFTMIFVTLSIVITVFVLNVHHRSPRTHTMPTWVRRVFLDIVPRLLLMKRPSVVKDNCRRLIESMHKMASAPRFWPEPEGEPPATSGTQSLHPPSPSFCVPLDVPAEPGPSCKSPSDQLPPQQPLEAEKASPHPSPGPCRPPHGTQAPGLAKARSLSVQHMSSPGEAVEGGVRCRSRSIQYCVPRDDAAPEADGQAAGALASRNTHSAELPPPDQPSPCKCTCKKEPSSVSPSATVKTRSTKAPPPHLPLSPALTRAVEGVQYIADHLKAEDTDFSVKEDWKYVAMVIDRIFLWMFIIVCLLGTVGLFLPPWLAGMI
Sequence (P17787 26-502): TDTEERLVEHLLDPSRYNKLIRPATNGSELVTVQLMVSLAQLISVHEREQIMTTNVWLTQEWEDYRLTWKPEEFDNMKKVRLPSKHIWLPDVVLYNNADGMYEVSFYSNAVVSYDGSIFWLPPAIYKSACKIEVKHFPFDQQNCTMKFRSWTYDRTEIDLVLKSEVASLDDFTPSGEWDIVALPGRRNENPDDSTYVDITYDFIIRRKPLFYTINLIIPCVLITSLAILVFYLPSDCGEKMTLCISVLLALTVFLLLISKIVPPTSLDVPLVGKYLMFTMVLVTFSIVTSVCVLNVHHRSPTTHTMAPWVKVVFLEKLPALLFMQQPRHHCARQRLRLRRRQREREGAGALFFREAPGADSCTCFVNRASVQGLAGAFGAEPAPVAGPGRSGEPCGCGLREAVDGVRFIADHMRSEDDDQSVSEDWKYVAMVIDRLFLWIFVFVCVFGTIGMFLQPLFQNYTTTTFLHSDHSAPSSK
runDescription: Determination of IC50 and Kb values, aequorin luminescence assay in CHO cells
Assay type: cell-based
assayContext: antagonist mode, fixed concentration of agonist epibatidine, CHO cells, luminescence; read-out: Kb
valueType: Kb (nM)

> print(dat)
                                   compound  valuetype  assayvalue
1  Cl.c1cncc(OCC2CC3CC3N2)c1 (stereo not shown) [Example 1, hydrochloride]         Kb         7.1
2  Cl.Cl.Clc1cncc(OCC2CC3CC3N2)c1 (stereo not shown) [Example 7, dihydrochloride]         Kb        17.8
3  Cc1ccc(OCC2CC3CC3N2C)cn1 (stereo not shown) [Example 13]         Kb           5
4  Cc1ccc(OCC2CC3CC3N2)cn1 (stereo not shown) [Example 18]         Kb          22

====

runDescription: Rodent Pharmacokinetic Study
assayContext: Wistar, in vivo, iv; Wister rat male, I.V, 5 mg/kg
Listed compounds paired with reported half-life
valueType: half-life (h)

> print(dat)
                                   compound  assayvalue
1  Cl.Cl.Clc1cncc(OCC2CC3CC3N2)c1 (stereo not shown)        0.86
2  Cl.Cl.Clc1ccc(OCC2CC3CC3N2)cn1 (stereo not shown)        2.52
3  Cl.c1cncc(OCC2CC3CC3N2)c1 (stereo not shown)        1.94
4  Cl.Cl.Clc1ncccc1OCC1CC2CC2N1 (stereo not shown)        1.55
